Value source: patent US6458816B1

experiment: In vivo PK of ortho phosphate bearing 3-AP prodrugs, single intravenous dose, beagle dog; details: 3-AP in dog serum after i.v. prodrug, equimolar doses
Outcome: rule met for T1/2 of 3-AP of at least 0.9 h; rule not met for anything lower.

Q: Would you say `NC(=S)N/N=C/c1ncccc1NC(=O)OCc1cc(Cl)c(Cl)cc1OP(=O)(O)O` shows T1/2 of 3-AP at minimum 0.9 h?
Result: rule met

Q: Would you say `NC(=S)N/N=C/c1ncccc1NC(=O)OCc1c(OP(=O)(O)O)ccc(Cl)c1Cl` shows T1/2 of 3-AP at minimum 0.9 h?
Result: rule met

Q: Would you say `Cc1cccc(COC(=O)Nc2cccnc2/C=N/NC(N)=S)c1OP(=O)(O)O` shows T1/2 of 3-AP at minimum 0.9 h?
Result: rule met

Q: Would you say `NC(=S)N/N=C/c1ncccc1NC(=O)OCc1cc([N+](=O)[O-])ccc1OP(=O)(O)O` shows T1/2 of 3-AP at minimum 0.9 h?
Result: rule not met

Q: Would you say `NC(=S)N/N=C/c1ncccc1NC(=O)OCc1cc(C(F)(F)F)ccc1OP(=O)(O)O` shows T1/2 of 3-AP at minimum 0.9 h?
Result: rule met
